Tested on: pigweed
Test: Test B pre/postemergence pigweed
Type: in vivo, Amaranthus retroflexus
Conditions: Rate 125 g/ha; Preemergence; scale of 0 to 10 where 0 is no effect and 10 is complete control
What Redroot pigweed plant response rating was measured for each of the following?
One number for each entry.

CCOC(=O)C(C)N(C(=O)n1oc(=O)n(CC)c1=O)c1ccc(F)cc1 (centres unmarked); 0
CCOCn1c(=O)on(C(=O)N(c2ccc(F)cc2)C(C)C)c1=O; 6
CC(C)N(C(=O)n1oc(=O)n(CC(=O)C(C)(C)C)c1=O)c1ccc(F)cc1; 0
CON=C(Cn1c(=O)on(C(=O)N(c2ccc(F)cc2)C(C)C)c1=O)C(F)(F)F; 5

// moving on: another record for Redroot pigweed plant response rating
Prompt: # query: Redroot pigweed plant response rating of entry Cc1ccccc1-n1c(=O)on(C(=O)N(c2ccc3c(c2)CCC3)C(C)C)c1=O
Completion: 0

Reference for the values: patent US6737383B1
